Listing of recorded pKd by entry.
Biological target: T1, P-selectin (PS-Rg) (Homo sapiens, UniProt P16109 P16109:42-321)
T1 chain: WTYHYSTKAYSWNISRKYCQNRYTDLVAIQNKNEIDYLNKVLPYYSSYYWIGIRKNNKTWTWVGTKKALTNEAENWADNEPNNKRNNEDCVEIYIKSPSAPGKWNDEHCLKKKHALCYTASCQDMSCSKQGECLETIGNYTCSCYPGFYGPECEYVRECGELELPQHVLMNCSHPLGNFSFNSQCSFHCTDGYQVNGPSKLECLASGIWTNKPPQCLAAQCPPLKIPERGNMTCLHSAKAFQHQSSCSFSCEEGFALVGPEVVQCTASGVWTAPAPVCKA
Test: filter; 4 C, HSMC
Details: tags: human IgG1 Fc fusion (provided by A. Varki); chain copies: 2; label: 32P
Keep it numeric: pKd is minus log10 of the concentration in mol/L.

>  <binder>
F13.55 (ssRNA, 2'-NH2 all C and U) RNA: GGGAGGACGAUGCGGUGUCUCUCCUGACUUUUAUUCUUAGUUCGAGCUGUCCUGGCAGACGACUCGCCCGA

>  <pKd>
5.24

$$$$

## Input Return reported pKd. Input binder: F14.53 (ssRNA, 2'-NH2 all C and U) RNA: GGGAGGACGAUGCGGUCCCAGAGUCCCGUGAUGCGAAGAAUCCAUUAGUACCAGACAGACGACUCGCCCGA
## Output 5.28
